Listed here: items and their measured MIC.
# System: C. krusei
# run description: Antifungal Activity Assay (broth microtiter MIC), C. krusei
# Assay type: cell-based, Candida krusei
# protocol conditions: Pichia kudriavzevii, ATCC6258, 48 h, read-out: MIC, C. krusei ATCC 6258, Table 3b (additional results), 3 replicates, MIC recorded at 48 h

COc1ccccc1[C@H](Cn1c(=O)n(C(C)(C)C(=O)N2CC(O)C2)c(=O)c2c(C)c(-n3nccn3)sc21)OC1CCOCC1 :: 2.01 to 4 µg/mL
COc1ccc(F)cc1[C@H](Cn1c(=O)n(C(C)(C)C(=O)NC(C)C)c(=O)c2c(C)c(-n3nccn3)sc21)O[C@H]1CC[C@H](C#N)CC1 :: 0.06 to 0.249 µg/mL
Cc1c(-n2nccn2)sc2c1c(=O)n(C(C)(C)C(=O)NC(C)C)c(=O)n2C[C@H](OC(C)C)c1cc(F)ccc1OCC#N :: 0.25 to 1 µg/mL
C=CCO[C@@H](Cn1c(=O)n(C(C)(C)C(=O)NC(C)C)c(=O)c2c(C)c(-n3nccn3)sc21)c1cc(F)ccc1OC :: 0.25 to 1 µg/mL
COc1ccc(F)cc1[C@@H](CCCO)Cn1c(=O)n(C(C)(C)C(=O)NC(C)C)c(=O)c2c(C)c(-n3nccn3)sc21 :: 0.06 to 0.249 µg/mL
CCc1ccc(F)cc1CCn1c(=O)n(C(C)(C)C(=O)NC(C)C)c(=O)c2c(C)c(-n3nccn3)sc21 :: 1.01 to 2 µg/mL
Cc1c(-n2nccn2)sc2c1c(=O)n(C(C)(C)C(=O)NC(C)C)c(=O)n2CCc1cc(F)ccc1OCc1ccccc1 :: 1.01 to 2 µg/mL
COc1ccc(F)cc1[C@H](Cn1c(=O)n(C(C)(C)C(=O)NC(C)C)c(=O)c2c(C)c(-n3nccn3)sc21)OCCN(C)C :: 0.25 to 1 µg/mL

# input Param readout = MIC; param system = C. krusei; param query = COc1ccccc1[C@@H](O)Cn1c(=O)n([C@@H](C)C(=O)NC(C)C)c(=O)c2c(C)c(-n3nccn3)sc21 ; response: value
# output 2.01 to 4 µg/mL

# input Param readout = MIC; param system = C. krusei; param query = Cc1c(-n2nccn2)sc2c1c(=O)n(C(C)(C)C(=O)NC(C)C)c(=O)n2C[C@H](O[C@H]1CC[C@@H](O)CC1)c1cc(F)ccc1OCC#N ; response: value
# output 0.25 to 1 µg/mL

# input Param readout = MIC; param system = C. krusei; param query = COc1ccc(F)cc1[C@H](Cn1c(=O)n(C(C)(C)C(=O)NC(C)C)c(=O)c2c(C)c(-n3nccn3)sc21)O[C@H]1CC[C@@H](O)CC1 ; response: value
# output 0.06 to 0.249 µg/mL

# input Param readout = MIC; param system = C. krusei; param query = COc1ccc(F)cc1[C@@](O)(CO)Cn1c(=O)n(C(C)(C)C(=O)NC(C)C)c(=O)c2c(C)c(-n3nccn3)sc21 ; response: value
# output 0.25 to 1 µg/mL

---

# target: human (hACC2) (Homo sapiens)
# Sequence (O00763 whole entry): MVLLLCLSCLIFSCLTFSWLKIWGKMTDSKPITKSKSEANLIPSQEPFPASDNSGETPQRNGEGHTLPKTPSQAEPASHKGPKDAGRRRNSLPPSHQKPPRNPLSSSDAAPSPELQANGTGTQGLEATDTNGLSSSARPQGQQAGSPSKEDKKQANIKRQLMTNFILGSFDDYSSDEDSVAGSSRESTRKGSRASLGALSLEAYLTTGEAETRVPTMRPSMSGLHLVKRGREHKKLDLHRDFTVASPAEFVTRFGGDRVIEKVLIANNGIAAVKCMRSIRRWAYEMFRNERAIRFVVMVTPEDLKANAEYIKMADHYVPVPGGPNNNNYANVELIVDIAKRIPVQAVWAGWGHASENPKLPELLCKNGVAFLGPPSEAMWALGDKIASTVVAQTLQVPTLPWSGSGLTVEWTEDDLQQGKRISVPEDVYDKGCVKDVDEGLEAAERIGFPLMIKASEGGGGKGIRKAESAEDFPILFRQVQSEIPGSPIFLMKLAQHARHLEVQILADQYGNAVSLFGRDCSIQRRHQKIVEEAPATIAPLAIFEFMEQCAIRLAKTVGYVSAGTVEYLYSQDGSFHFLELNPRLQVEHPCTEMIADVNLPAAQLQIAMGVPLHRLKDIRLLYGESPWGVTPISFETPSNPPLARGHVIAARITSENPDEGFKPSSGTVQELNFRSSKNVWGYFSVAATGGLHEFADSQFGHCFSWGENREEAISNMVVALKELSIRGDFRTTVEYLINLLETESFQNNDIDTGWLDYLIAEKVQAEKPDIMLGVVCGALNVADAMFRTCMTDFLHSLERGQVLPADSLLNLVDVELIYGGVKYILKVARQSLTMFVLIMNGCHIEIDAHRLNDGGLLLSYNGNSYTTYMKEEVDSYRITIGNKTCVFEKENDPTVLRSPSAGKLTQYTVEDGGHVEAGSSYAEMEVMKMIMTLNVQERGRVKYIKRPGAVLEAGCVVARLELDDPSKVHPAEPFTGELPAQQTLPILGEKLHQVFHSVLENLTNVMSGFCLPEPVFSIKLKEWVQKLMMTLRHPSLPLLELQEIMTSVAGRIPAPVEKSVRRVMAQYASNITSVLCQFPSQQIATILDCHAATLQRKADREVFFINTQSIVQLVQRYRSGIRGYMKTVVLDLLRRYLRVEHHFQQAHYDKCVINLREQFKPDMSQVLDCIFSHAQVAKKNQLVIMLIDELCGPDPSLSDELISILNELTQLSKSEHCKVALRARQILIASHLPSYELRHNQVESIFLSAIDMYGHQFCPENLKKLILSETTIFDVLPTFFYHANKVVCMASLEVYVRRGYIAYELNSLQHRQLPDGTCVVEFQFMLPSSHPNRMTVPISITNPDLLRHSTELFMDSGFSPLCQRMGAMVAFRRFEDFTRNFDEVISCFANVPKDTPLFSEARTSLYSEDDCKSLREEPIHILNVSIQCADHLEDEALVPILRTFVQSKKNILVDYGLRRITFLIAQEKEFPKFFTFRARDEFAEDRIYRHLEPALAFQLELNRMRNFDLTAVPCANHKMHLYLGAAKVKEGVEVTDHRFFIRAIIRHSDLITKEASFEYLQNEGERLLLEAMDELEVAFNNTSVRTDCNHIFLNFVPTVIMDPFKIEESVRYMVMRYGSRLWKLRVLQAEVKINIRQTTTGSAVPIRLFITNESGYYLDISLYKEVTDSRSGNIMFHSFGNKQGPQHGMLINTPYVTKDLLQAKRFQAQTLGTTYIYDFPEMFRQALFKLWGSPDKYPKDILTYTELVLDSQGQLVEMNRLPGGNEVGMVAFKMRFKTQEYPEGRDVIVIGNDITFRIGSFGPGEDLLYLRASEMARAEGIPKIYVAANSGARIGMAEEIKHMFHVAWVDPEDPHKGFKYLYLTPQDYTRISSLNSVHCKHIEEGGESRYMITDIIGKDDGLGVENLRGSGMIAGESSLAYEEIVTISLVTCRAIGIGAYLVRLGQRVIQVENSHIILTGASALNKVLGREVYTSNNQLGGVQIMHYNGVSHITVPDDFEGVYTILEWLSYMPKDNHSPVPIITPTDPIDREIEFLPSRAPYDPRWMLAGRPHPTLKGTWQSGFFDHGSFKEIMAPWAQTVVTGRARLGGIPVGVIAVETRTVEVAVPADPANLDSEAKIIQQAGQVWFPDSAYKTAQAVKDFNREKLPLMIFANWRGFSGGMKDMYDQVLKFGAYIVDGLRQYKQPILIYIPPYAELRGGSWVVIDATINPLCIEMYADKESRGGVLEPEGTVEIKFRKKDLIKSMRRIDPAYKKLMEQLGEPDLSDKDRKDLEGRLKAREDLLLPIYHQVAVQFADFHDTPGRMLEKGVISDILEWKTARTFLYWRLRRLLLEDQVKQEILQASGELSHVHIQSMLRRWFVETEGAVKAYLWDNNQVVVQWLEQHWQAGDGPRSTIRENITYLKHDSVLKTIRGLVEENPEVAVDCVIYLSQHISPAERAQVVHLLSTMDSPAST
# run description: In vitro ACC inhibition assay (ADP-Glo), hACC2
# Type: biochemical
# protocol conditions: Table 2b, additional results, 5 nM ACC2, 20 μM ATP, 20 μM acetyl-CoA
pIC50: −log10 of the molar value.
parameter: pIC50

# count of solved cases: 2
COc1ccc(F)cc1[C@H](Cn1c(=O)n(C(C)(C)C(=O)N2CCCC2)c(=O)c2c(C)c(-n3nccn3)sc21)OCC(C)(C)O :: 7.40 to 8.00
C=CCO[C@@H](Cn1c(=O)n(C(C)(C)C(=O)NC(C)C)c(=O)c2c(C)c(-n3nccn3)sc21)c1cc(F)ccc1OC :: 8.30 to 9.00

# input Name the reported pIC50 value associated with the compound COc1ccc(F)cc1[C@H](Cn1c(=O)n(C(C)(C)C(=O)N2CCCC2)c(=O)c2c(C)c(-n3nccn3)sc21)OC[C@H](C)O
# output 8.00 to 8.30

# input Name the reported pIC50 value associated with the compound COc1ccc(F)cc1[C@H](Cn1c(=O)n([C@@H](C)C(=O)NC(C)C)c(=O)c2c(C)c(-n3nccn3)sc21)OCC(C)(C)O
# output 8.00 to 8.30

# input Name the reported pIC50 value associated with the compound C=CCN(C)C(=O)C(C)(C)n1c(=O)c2c(C)c(-n3nccn3)sc2n(C[C@H](OC2CCOCC2)c2cc(F)ccc2OC)c1=O
# output 8.30 to 9.00

# input Name the reported pIC50 value associated with the compound COc1ccccc1[C@H](Cn1c(=O)n(C(C)(C)C(N)=O)c(=O)c2c(C)c(-n3nccn3)sc21)OCCC#N
# output 8.30 to 9.00

# input Name the reported pIC50 value associated with the compound Cc1c(-n2nccn2)sc2c1c(=O)n(C(C)(C)C(=O)N1CCCC1)c(=O)n2C[C@H](OC1CCOCC1)c1cc(F)ccc1OCCO
# output 8.30 to 9.00

# input Name the reported pIC50 value associated with the compound COc1ccc(F)cc1[C@H](Cn1c(=O)n(C(C)(C)C(=O)NC(C)C)c(=O)c2c(C)c(-n3nccn3)sc21)OCCC(=O)O
# output 7.40 to 8.00

---

# System: C. krusei
# run description: Antifungal Activity Assay (broth microtiter MIC), C. krusei
# Format: cell-based, Candida krusei
# protocol conditions: Pichia kudriavzevii, ATCC6258, 48 h, Table 3b (additional results); ATCC 6258; 3 replicates; MIC recorded at 48 h; read-out: MIC, C. krusei ATCC 6258
parameter: MIC

Cc1c(-n2nccn2)sc2c1c(=O)n(C(C)(C)C(=O)N1CCCC1)c(=O)n2C[C@H](OC1CCOCC1)c1cc(F)ccc1OCC1COC1 :: 1.01 to 2 µg/mL
COc1ccc(F)cc1[C@H](Cn1c(=O)n(C(C)(C)C(=O)NC2CC2)c(=O)c2c(C)c(-n3nccn3)sc21)OC(C)C :: 0.06 to 0.249 µg/mL
COCCO[C@@H](Cn1c(=O)n(C(C)(C)C(=O)NC2CCCCC2)c(=O)c2c(C)c(-n3nccn3)sc21)c1cc(F)ccc1OC :: 0.25 to 1 µg/mL
COc1ccc(F)cc1[C@H](Cn1c(=O)n([C@@H](C)C(N)=O)c(=O)c2c(C)c(-n3nccn3)sc21)OCC(C)(C)O :: > 4.01 µg/mL
CCc1ccc(F)cc1[C@H](Cn1c(=O)n(C(C)(C)C(=O)O)c(=O)c2c(C)c(-n3nccn3)sc21)OCCO :: > 4.01 µg/mL

Then this compound:
# input Name the reported MIC value associated with the compound CCc1ccc(F)cc1[C@@H](Cn1c(=O)n(C(C)(C)C(=O)NC(C)C)c(=O)c2c(C)c(-n3nccn3)sc21)OC[C@@H](C)C#N
# output > 4.01 µg/mL

---

Listed here: items and their measured IC90.
# Test system: Septoria tritici (St)
# run description: Growth inhibition assay of fungal pathogens, St
# Type: cell-based
# protocol conditions: Zymoseptoria tritici, 48 h, Septoria tritici; growth inhibition at 48 hours vs 2% DMSO control; read-out: Concentration at 90% Inhibition St

# count of solved cases: 2
COc1ccc(F)cc1[C@H](Cn1c(=O)n([C@H](C)C(=O)NC(C)C)c(=O)c2c(C)c(-n3nccn3)sc21)OCC(C)(C)C#N [Compound I-210] :: 2 µg/mL
COc1ccc(F)cc1[C@@H](O)Cn1c(=O)n([C@H](C)C(=O)N(C)C(C)C)c(=O)c2c(C)c(-n3nccn3)sc21 [Compound I-197] :: > 50 µg/mL

# input Name the reported IC90 value associated with the compound COc1ccc(Cl)cc1[C@H](Cn1c(=O)n(C(C)(C)C(=O)NC(C)C)c(=O)c2c(C)c(-n3nccn3)sc21)OCC(C)(C)C#N [Compound I-227]
# output > 50 µg/mL

---

# Test system: Rhizoctonia solani (Rs)
# run description: Growth inhibition assay of fungal pathogens, Rs
# Assay type: cell-based
# protocol conditions: 48 h, mycelial plugs, growth inhibition at 48 hours vs 2% DMSO control, read-out: Concentration at 90% Inhibition Rs
Listed here: items and their measured IC90.
Record the value in µg/mL, omitting the unit from your answer.

# count of solved cases: 8
COc1ccc(F)cc1[C@@H](O)Cn1c(=O)n([C@@H](C)C(=O)N2CC=CC2)c(=O)c2c(C)c(-n3nccn3)sc21 :: 2
COc1ccc(F)cc1[C@H](Cn1c(=O)n([C@@H](C)C(=O)N(C)C(C)C)c(=O)c2c(C)c(-n3nccn3)sc21)OCCC#N :: 2
CNC(=O)C(C)(C)n1c(=O)c2c(C)c(-n3nccn3)sc2n(C[C@H](OCCC#N)c2cc(F)ccc2OC)c1=O :: 0.08
COc1ccc(F)cc1[C@H](Cn1c(=O)n(C(C)(C)C(=O)NC(C)C)c(=O)c2c(C)c(-n3nccn3)sc21)OC[C@@H](C)C#N :: 0.08
COc1ccccc1[C@H](Cn1c(=O)n([C@H](C)C(=O)N(C)C(C)C)c(=O)c2c(C)c(-n3nccn3)sc21)OCCC#N :: 10
COc1ccc(F)cc1[C@H](Cn1c(=O)n([C@@H](C)C(=O)NC2CCC2)c(=O)c2c(C)c(-n3nccn3)sc21)OCCO :: 2
CCNC(=O)C(C)(C)n1c(=O)c2c(C)c(-n3nccn3)sc2n(C[C@@H](OC(C)=O)c2cc(F)ccc2OC)c1=O :: 2
COCCOc1ccc(F)cc1[C@H](Cn1c(=O)n(C(C)(C)C(=O)NC(C)C)c(=O)c2c(C)c(-n3nccn3)sc21)OC(C)C :: 0.4

# input Name the reported IC90 value associated with the compound COc1ccc(F)cc1[C@H](Cn1c(=O)n(C(C)(C)C(=O)O)c(=O)c2c(C)c(-n3nccn3)sc21)OC1CCC(=O)CC1
# output 10

# input Name the reported IC90 value associated with the compound COc1ccc(F)cc1[C@H](Cn1c(=O)n(C(C)(C)C(=O)N2CCCC2)c(=O)c2c(C)c(-n3nccn3)sc21)OC1CCOCC1
# output 0.08

# input Name the reported IC90 value associated with the compound COc1ccc(F)cc1[C@@H](O)Cn1c(=O)n([C@H](C)C(=O)N2CCCC2)c(=O)c2c(C)c(-n3nccn3)sc21
# output 0.4

# input Name the reported IC90 value associated with the compound COCCCO[C@@H](Cn1c(=O)n(C(C)(C)C(=O)N2CCCC2)c(=O)c2c(C)c(-n3nccn3)sc21)c1cc(F)ccc1OC
# output 0.4

# input Name the reported IC90 value associated with the compound COCCCO[C@@H](Cn1c(=O)n([C@H](C)C(=O)NC(C)C)c(=O)c2c(C)c(-n3nccn3)sc21)c1cc(F)ccc1OC
# output 0.08
